# Target: Tyrosine-protein phosphatase non-receptor type 1 (Homo sapiens)
# Sequence (P18031 whole entry): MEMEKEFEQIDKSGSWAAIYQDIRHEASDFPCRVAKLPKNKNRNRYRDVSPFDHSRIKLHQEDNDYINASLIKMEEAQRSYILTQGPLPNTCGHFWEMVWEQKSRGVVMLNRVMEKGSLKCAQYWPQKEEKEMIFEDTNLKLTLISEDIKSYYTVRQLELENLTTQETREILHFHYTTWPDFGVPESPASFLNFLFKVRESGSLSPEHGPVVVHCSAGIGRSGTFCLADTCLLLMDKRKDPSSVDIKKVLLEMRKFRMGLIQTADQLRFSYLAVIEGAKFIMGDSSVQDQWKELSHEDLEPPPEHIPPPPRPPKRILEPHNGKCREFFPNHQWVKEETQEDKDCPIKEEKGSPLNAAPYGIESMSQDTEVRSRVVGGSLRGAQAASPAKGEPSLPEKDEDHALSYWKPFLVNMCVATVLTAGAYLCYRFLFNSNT
# Experiment: Inhibition of human recombinant PTP1B using pNPP as substrate assessed as reduction in p-nitrophenol release incubated for 30 mins by absorbance based analysis
pIC50: −log10 of the molar value.
Reported Metric: pIC50

Reference set, count: 8
{"Smiles String": "C=C1C(=O)O[C@@H]2/C=C(\\C)CC/C=C(\\CO)C[C@@H](OC(=O)/C(C)=C/C)[C@@H]12", "Target": "Tyrosine-protein phosphatase non-receptor type 1 (Homo sapiens)", "pIC50": "< 4.60"}
{"Smiles String": "C=C1C(=O)O[C@@H]2/C=C(\\C)CC/C=C(\\C)C[C@@H](OC(=O)/C(=C\\C)CO)[C@@H]12", "Target": "Tyrosine-protein phosphatase non-receptor type 1 (Homo sapiens)", "pIC50": 4.96}
{"Smiles String": "C=C1C(=O)O[C@@H]2/C=C(\\C)CC/C=C(\\C)C[C@@H](OC(=O)/C(=C/C)COC(C)=O)[C@@H]12", "Target": "Tyrosine-protein phosphatase non-receptor type 1 (Homo sapiens)", "pIC50": "< 4.60"}
{"Smiles String": "C=C1C(=O)O[C@@H]2/C=C(\\C)C[C@H](O)/C=C(\\C)C[C@@H](OC(=O)/C(=C\\C)CO)[C@@H]12", "Target": "Tyrosine-protein phosphatase non-receptor type 1 (Homo sapiens)", "pIC50": 4.55}
{"Smiles String": "C=C1C(=O)O[C@@H]2/C=C(\\C)[C@@H](O)C/C=C(\\C)C[C@@H](OC(=O)/C(=C\\C)COC(C)=O)[C@@H]12", "Target": "Tyrosine-protein phosphatase non-receptor type 1 (Homo sapiens)", "pIC50": 4.60}
{"Smiles String": "C=C1C(=O)O[C@@H]2/C=C(\\C)CC/C=C(\\C)C[C@@H](OC(=O)/C(=C/CO)CO)[C@@H]12", "Target": "Tyrosine-protein phosphatase non-receptor type 1 (Homo sapiens)", "pIC50": "< 4.55"}
{"Smiles String": "C=C1C(=O)O[C@@H]2/C=C(\\C)C[C@H](O)/C=C(\\C)C[C@@H](OC(=O)/C(=C\\C)COC(C)=O)[C@@H]12", "Target": "Tyrosine-protein phosphatase non-receptor type 1 (Homo sapiens)", "pIC50": "< 4.60"}
{"Smiles String": "C=C1C(=O)O[C@@H]2/C=C(\\C)CC/C=C(\\C)C[C@@H](OC(=O)/C(=C\\COC(C)=O)CO)[C@@H]12", "Target": "Tyrosine-protein phosphatase non-receptor type 1 (Homo sapiens)", "pIC50": "< 4.54"}

Please examine the following record next.
Challenge: GET /values?readout=pIC50&item= `C=C1C(=O)O[C@@H]2/C=C(\C)CC/C=C(\C)C[C@@H](OC(=O)/C(=C/C)CO)[C@@H]12`
Response given: < 4.54
